Biological target: human CCR8 (human, UniProt P51685 1-355)
Sequence (P51685 whole entry): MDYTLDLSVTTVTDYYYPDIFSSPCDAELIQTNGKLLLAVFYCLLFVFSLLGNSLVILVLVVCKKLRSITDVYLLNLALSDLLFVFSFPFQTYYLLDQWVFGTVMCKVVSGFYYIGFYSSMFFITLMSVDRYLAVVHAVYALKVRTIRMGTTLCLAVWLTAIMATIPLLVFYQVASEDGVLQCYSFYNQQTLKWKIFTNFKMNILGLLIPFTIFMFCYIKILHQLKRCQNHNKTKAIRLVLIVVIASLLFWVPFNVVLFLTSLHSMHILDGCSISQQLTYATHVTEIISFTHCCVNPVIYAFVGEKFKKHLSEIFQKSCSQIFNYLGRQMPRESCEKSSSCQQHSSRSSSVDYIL
Assay: cell-based or functional assay
Experimental Endpoint: ADCC EC50 (nM), NK92-CD16A effectors, HEK293-hCCR8 targets, LDH release
Please give a number only; it is taken to be in nM.

Which ADCC EC50 (nM), NK92-CD16A effectors, HEK293-hCCR8 targets, LDH release is listed for 139A9 anti-CCR8 chimeric antibody (antibody, V domains shown) VH: QVQLVESNGRLVQPKGSLKLSCAASGFTFNAYAMNWVRQAPGKGLEWVARIRSKSNNYATYYADSVKDRFTISRDDSQSMLYLQMNNLKTEDTAMYFCVRQKFGARGYYALDFWGQGASVTVSS VL: ENVLTQSPTTMAASPGEKITITCSASSSISSNYLHWYQQKPGFSPKLLIYRTSNLASGVPARFSGSGSGTSYSLTIGTMEAEDVATYYCQQGSSIPLTFGAGTKLELK ? 0.06
